These measurements were taken from patent US9469650B2.

Each record here notes measured Percent Growth.
# Test system: UACC-257
# TEST: panel of 60 human tumor cell lines, growth inhibition (Melanoma)
# EXPERIMENTAL_PARAMETERS: UACC-257; Log10 Concentration −4.0
Only the number, expressed in %, is required.

Record excerpt, results attached:
C=C1C(=O)O[C@H]2[C@H]1CC/C(COC(=O)OCCCN1CCCCC1)=C\CC[C@@]1(C)O[C@@H]21 [JVM 2-26]    −94
C=C1C(=O)O[C@H]2[C@H]1CC/C(COC(=O)NCCCCCCO)=C\CC[C@@]1(C)O[C@@H]21 [JVM 2-31]    −73
C=C1C(=O)O[C@H]2[C@H]1CC/C(COC(=O)NCCO)=C\CC[C@@]1(C)O[C@@H]21 [JVM 2-50]    −73

Below: the item to evaluate.
Return Percent Growth (reported value) for this molecule: C=C1C(=O)O[C@H]2[C@H]1CC/C(COC(=O)CCC(=O)NCc1ccc(Cl)nc1)=C\CC[C@@]1(C)O[C@@H]21 [JVM 96]
−87
